B1: INTS4 (parent)
chain: TIIEPAGESDNPLRFTSGLVVALD

- Variants of: B1
- experiment: protein stability index of a GFP-peptide fusion (GPS, HEK-293T) (PSI 1-6); higher = more stable;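 note: lentivirally expressed fusions sorted by FACS into six bins by GFP to DsRed ratio, PSI derived from sequencing read proportions per bin multiplied by bin number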
- conditionSet: c terminus: a fixed tail appended
endpointLabel: protein stability index

G7H ... 2.73
F15K ... 3.54
D24F ... 4.12
N11W ... 1.63
L13E ... 4.12
T1Y ... 2.08
D24E ... 2.38
S9M ... 3.16
T16V ... 2.01
D24N ... 2.12
S9Y ... 2.48
P12K ... 2.61
L13P ... 3.6
D24S ... 2.06
L23T ... 3.92
E4T ... 2.34
P5S ... 2.33
G7Y ... 2.45
V20W ... 2.68
A22I ... 1.61
A6N ... 2.52
I2N ... 3.9
T1H ... 3.23
P12N ... 2.88
L13C ... 2.94
E8T ... 2.61
L23G ... 4.16
I2F ... 3.8
D10I ... 2.08
D10M ... 2.15
L19A ... 4.01
T16W ... 1.76
V20F ... 2.31
T1R ... 2.32
D10F ... 2.65
I3W ... 2.88
D24K ... 2.19
G18F ... 1.41
N11K ... 2.86
T1A ... 2.45
T16C ... 1.91
L13M ... 3.35
V21A ... 3.36
E8L ... 2.37
I3D ... 4.07
A22E ... 4.07
